- testSystem: PAS of EeAChE (Electrophorus electricus, UniProt O42275)
- Construct: purchased Sigma-Aldrich
- Sequence (O42275 24-633): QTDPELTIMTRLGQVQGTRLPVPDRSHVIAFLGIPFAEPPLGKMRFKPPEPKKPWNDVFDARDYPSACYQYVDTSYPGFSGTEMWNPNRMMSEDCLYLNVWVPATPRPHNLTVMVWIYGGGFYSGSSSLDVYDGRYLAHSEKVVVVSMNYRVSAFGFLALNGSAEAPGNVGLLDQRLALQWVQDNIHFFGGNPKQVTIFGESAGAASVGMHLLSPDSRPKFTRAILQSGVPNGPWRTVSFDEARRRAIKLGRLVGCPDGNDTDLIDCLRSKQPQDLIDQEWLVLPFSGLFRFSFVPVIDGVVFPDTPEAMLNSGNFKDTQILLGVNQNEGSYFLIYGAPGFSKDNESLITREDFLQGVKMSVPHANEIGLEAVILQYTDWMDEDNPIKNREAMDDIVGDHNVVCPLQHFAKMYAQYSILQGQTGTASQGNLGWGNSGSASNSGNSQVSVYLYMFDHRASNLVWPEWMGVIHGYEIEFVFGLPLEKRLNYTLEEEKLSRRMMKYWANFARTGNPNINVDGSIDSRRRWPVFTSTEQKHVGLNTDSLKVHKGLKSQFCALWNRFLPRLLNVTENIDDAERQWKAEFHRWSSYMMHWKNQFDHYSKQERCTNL
- protocolNotes: Propidium iodide displacement assay
- Type: binding
- conditionNotes: 0.25 h; 1.5 µM compound; EeAChE; read-out: % Displacement of Propidium Iodide
readoutLabel: inhibition at 1.5 µM (%)
Give the number; % is assumed, so skip it.

These solved cases illustrate the format of a correct answer.
| molecule | uom | inhibition at 1.5 µM |
| --- | --- | --- |
| C=C(C)[C@@H]1CC[C@]2(C(=O)O)CC[C@]3(C)C(CCC4[C@@]5(C)C(C=O)=CC(C)(C)C5CC[C@]43C)C12 (some centres unmarked) | % | 26.3 |
| C=C(C)[C@@H]1CC[C@]2(C(=O)O)CC[C@]3(C)[C@H](CC[C@@H]4[C@@]5(C)[C@@H](C(=O)O)[C@H](O)C(C)(C)[C@@H]5CC[C@]43C)[C@@H]12 | % | 45.6 |
| C=C(C)[C@@H]1CC[C@]2(C(=O)O)CC[C@]3(C(=O)O)[C@H](CC[C@@H]4[C@@]5(C)C=CC(C)(C)[C@@H]5CC[C@]43C)[C@@H]12 | % | 26.7 |
| C=C(C)[C@@H]1CC[C@]2(C(=O)O)CC[C@]3(C)[C@H](CC[C@@H]4[C@@]5(C)[C@H](CO)[C@@H](O)C(C)(C)[C@@H]5CC[C@]43C)[C@@H]12 | % | 19.3 |

Shift focus to the following entry.
### Prompt # return inhibition at 1.5 µM for C=C(C)[C@@H]1CC[C@]2(C(=O)O)CC[C@]3(C)C(CCC4[C@@]5(C)C(C(=O)O)C(=O)C(C)(C)C5CC[C@]43C)C12 (some centres unmarked) , test system: PAS of EeAChE (Electrophorus electricus, UniProt O42275)
### Response 40.5
